Sequence of the target: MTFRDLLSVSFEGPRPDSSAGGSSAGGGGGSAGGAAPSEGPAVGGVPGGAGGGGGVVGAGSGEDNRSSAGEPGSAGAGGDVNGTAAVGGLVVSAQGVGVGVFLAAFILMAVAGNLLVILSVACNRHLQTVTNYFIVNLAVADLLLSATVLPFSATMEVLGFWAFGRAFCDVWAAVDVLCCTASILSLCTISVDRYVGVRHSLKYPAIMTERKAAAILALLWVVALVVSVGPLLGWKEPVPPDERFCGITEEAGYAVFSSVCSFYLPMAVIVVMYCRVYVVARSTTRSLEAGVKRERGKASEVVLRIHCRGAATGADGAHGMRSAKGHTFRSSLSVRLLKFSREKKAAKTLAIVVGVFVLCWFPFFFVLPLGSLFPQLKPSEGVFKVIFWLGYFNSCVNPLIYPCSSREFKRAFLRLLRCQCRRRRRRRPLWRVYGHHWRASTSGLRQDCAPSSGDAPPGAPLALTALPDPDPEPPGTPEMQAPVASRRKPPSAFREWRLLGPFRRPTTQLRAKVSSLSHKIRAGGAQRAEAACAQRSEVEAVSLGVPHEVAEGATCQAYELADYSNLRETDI
Compiled from multiple publications: Ki readings for the protein given by its sequence.
Give bare numbers, in nM.

molecule	result
COc1cccc(C2CCC(NCCOc3ccccn3)CC2)c1 (stereo in doubt)	142
CC(C)Oc1ccccc1N1CCN(Cc2cc(CN3CCCC3=O)no2)CC1	65.5
COc1ccccc1N1CCN(CCN(C(=O)C23CCC(CF)(CC2)CC3)c2ccccn2)CC1	73

Proceed to the following item.
# value of Ki, the protein given by its sequence, item COc1ccccc1N1CCN(C[C@H]2CCC(c3ccccc3)(c3ccccc3)[C@H]2O)CC1 (relative stereo) = 67.6
